# Run Description: Inhalation study, repeated dosing
# Run Parameters: in vivo, inhaled or intranasal, 25 mg/kg/d; 7 day repeated dose study in the dog
Assay Metric: NOAEL at 168 h (mg/kg/day)
Give a bare numeral; the unit mg/kg/day is implied.

Entry "CC[C@H](C)[C@H](NC(C)=O)C(=O)N[C@H]1CSSC[C@@H](C(=O)N[C@H](C(N)=O)[C@@H](C)O)NC(=O)[C@H](CCCNC(=N)N)NC(=O)[C@H](Cc2cnc[nH]2)NC(=O)[C@H](C)NC(=O)CNC(=O)[C@H](Cc2c[nH]c3ccccc23)NC(=O)[C@H](CC(=O)O)NC(=O)[C@H](CCC(N)=O)NC(=O)[C@H](Cc2cn(C)c3ccccc23)NC(=O)[C@H](C(C)C)NC1=O" : reported NOAEL at 168 h = ?
25

###

# Run Description: Inhalation studies, single dose and repeated dosing
# Type: in vivo, cynomolgus monkey
# Run Parameters: cynomolgus monkey, in vivo, inhaled or intranasal, 80 mg/kg; single dose study in the monkey
Assay Metric: NOAEL (mg/kg)
Give a bare numeral; the unit mg/kg is implied.

Entry "CC[C@H](C)[C@H](NC(C)=O)C(=O)N[C@H]1CSSC[C@@H](C(=O)N[C@H](C(N)=O)[C@@H](C)O)NC(=O)[C@H](CCCNC(=N)N)NC(=O)[C@H](Cc2cnc[nH]2)NC(=O)[C@H](C)NC(=O)CNC(=O)[C@H](Cc2c[nH]c3ccccc23)NC(=O)[C@H](CC(=O)O)NC(=O)[C@H](CCC(N)=O)NC(=O)[C@H](Cc2cn(C)c3ccccc23)NC(=O)[C@H](C(C)C)NC1=O" : reported NOAEL = ?
80

These data points were gathered from patent US11844841B2.
